system: Inhibin beta A chain (activin A); assay: small molecules binding activin A – biochemical, small-molecule microarray, 635 nm fluorescence scan, primary screen (AID 1107); details: INHBA, higher = more signal;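 further: mouse activin A protein probed at 4.33 µg/mL on printed slides; score merges bound-protein fluorescence near 667 nm with spot signal-to-noise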
The label depends only on composite z-score: true if it is at least 0.4, false if it is smaller.

Record excerpt, results attached:
compound: CCOC(=O)C1=C[C@@H](C(C)C)N(S(=O)(=O)c2ccc(C)cc2)[C@H]1c1ccc(C(F)(F)F)cc1
label: false
//
compound: O=C1CS(=O)(=O)C(c2cccc([N+](=O)[O-])c2)N1c1ccccc1 (stereo not given)
label: false
//
compound: COC(=O)[C@@H]1N=C(c2ccc(OCCCO)cc2)O[C@@H]1c1ccccc1
label: false
//
compound: COC(=O)C1=CC(CCCO)=CC(c2cccs2)N(C)C=C1C(=O)OC (stereo not given)
label: true

Here's the next entry for you.
Given CCCCC(CC)C(O)C1C=CC2C(=O)N(c3ccccc3)C(=O)C2N1Nc1ccc(C#N)cc1 (stereo not given) , state whether its composite z-score is at least 0.4.
true

---

assay: ATP-based viability of Huh7 replicon cells – cell-based, CellTiter-Glo luminescence, basal, 48 h, cytotoxicity control for HCV replication inhibitor project, primary screen (AID 1143); conditions: higher = more signal, called active from +8 up or from −8 down;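 further: Huh7 hepatoma cells carrying a hepatitis C replication reporter with no stimulus; test concentration not given here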
Catalogue of z-score readings, one per entry.
Reply: number alone, nothing else.

Observe how each entry below is paired with its result.
molecule: C=CC[C@@]1(C(=O)NCCCOC)N=C(c2ccc(OCCCO)cc2)O[C@@H]1c1ccccc1N=[N+]=[N-]
quantity: z-score
readoutNumber: -2.67

molecule: CCOC(=O)C[C@H]1[C@H](OC(=O)c2ccccc2-c2ccccc2)[C@@H](NC(=O)c2ccc3ccccc3c2)c2cc(OCCCO)ccc2N1C(=O)c1ccccc1
quantity: z-score
readoutNumber: -0.399

molecule: CCCC=C(CCC)[C@@H](NS(=O)(=O)CC12CCC(CC1=O)C2(C)C)c1ccc(C(=O)OC)cc1 (stereo partly drawn)
quantity: z-score
readoutNumber: -0.816

molecule: O=C(Cc1ccccc1)[C@H]1C2C=CCCC(c3ccccc3)=C2CN1Cc1ccccc1 (stereo partly drawn)
quantity: z-score
readoutNumber: -0.408

Give z-score for Cc1ccc(F)cc1S(=O)(=O)N[C@@H]1CCN(Cc2ccc(Br)cc2)C1
-3.58

Given CC(CO)N1C(=O)[C@@H]2[C@H]3C(=O)OCC=C[C@H]3OC23C=CCN(Cn2nnc4ccccc42)C(=O)[C@@H]13 (stereo partly drawn) , respond with its z-score.
-0.407

Identify measured z-score associated with CCCC=C(CCC)[C@@H](NP(=O)(c1ccccc1)c1ccccc1)c1ccc(-c2ccccc2)cc1
-1.53

Return reported z-score. Input molecule: CCCC[C@@H](O)C1=C(COC)C[C@H]2C(=O)N(Cc3ccccc3)C(=O)[C@H]2[C@H]1CO
-0.168

---

test system: Wnt5a (protein binding on small-molecule microarray); assay: small molecules binding Wnt5a protein – biophysical, small-molecule microarray, 635/667 nm fluorescence, primary screen (AID 1142); settings: 635 nm fluorescence, higher = more signal;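 further: fluorescence read at 667 nm with signal to noise per printed feature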
quantity: composite z-score
Reply briefly: the number, and no unit.

molecule: C=CCC(OC(C)=O)[C@@H]1[C@@H](N(Cc2cc3ccccc3o2)C(=O)Cc2ccc(F)cc2)c2cc(OCCCO)ccc2N1C(=O)Cc1ccc2ccccc2c1 (stereo partly drawn)
composite z-score: -0.314

Query composite z-score for C=CC[C@@H](OC(=O)Nc1ccc(OC)cc1)c1ccc(O)c(F)c1
-0.115

Identify the reported composite z-score for the following entry. C=CCNC(=O)[C@@H]1[C@H]2C(=O)O[C@H](c3ccccc3)[C@H](c3ccccc3)N2[C@H](c2ccccc2OCCO)[C@@]12C(=O)Nc1ccc(C#CCCO)cc12
0.27

For the molecule O=C1O[C@@H](c2ccccc2)[C@@H](c2ccccc2)N2[C@@H](c3ccc(OCCO)cc3)[C@]3(C(=O)Nc4ccc(C#CC5=CCCCC5)cc43)[C@@H](C(=O)NC[C@H](O)c3ccccc3)[C@H]12 , report composite z-score.
0.771

// fetch composite z-score given entry COCCOC(=O)N1C(=O)[C@@]2(c3ccccc31)[C@H](c1ccc(O)cc1)N1[C@H](c3ccccc3)[C@H](c3ccccc3)OC(=O)[C@H]1[C@@H]2C(=O)N1CCN(c2ncccn2)CC1
0.019

Output measured composite z-score for this item: C=CCN1C(=O)[C@]2(CCC(=O)OC(C)(C)C)N=C(c3ccc(OCCCO)cc3)O[C@@H]2c2ccccc21
0.176

Give the value of composite z-score reported for the following: COC(=O)[C@@]1(Cc2ccc(OC)cc2)[C@H]2c3cc(C(=O)N4CCCC4)n(CCc4c[nH]c5ccc(OC)cc45)c3C[C@H]2CN1C(=O)c1ccccc1
0.411

---

assay: resazurin metabolic signal in HepG2 cells – cell-based, resazurin fluorescence, 24 h, PK04 Diversity Set, profiling panel (AID 1172); conditions: HepG2 viability, higher = more signal; further: test concentration not given here
quantity: z-score

Consider the following illustrative entries.
compound: NCCCCCNC(=O)[C@H]1C[C@H]2C(=O)N3CCC[C@H]3C(=O)N2[C@H]1c1cccc(OCCO)c1
z-score: -1.25

compound: CN(C)C(=O)[C@]1(CCC(=O)OC(C)(C)C)N=C(c2ccc(OCCCO)cc2)O[C@@H]1c1ccccc1CN=[N+]=[N-]
z-score: 1.52

compound: CCCC=C(CCC)[C@@H](NS(=O)(=O)CC12CCC(CC1=O)C2(C)C)c1ccc(C(=O)OC)cc1 (stereo partly drawn)
z-score: 0.602

compound: CCCNC(=O)[C@@]1(Sc2ccc(C)cc2)CC(=O)N(C2Cc3ccccc3C2)[C@@H]1c1ccc(CO)cc1I
z-score: -0.463

compound: O[C@@H](Cc1ccccc1)[C@@H](/C=C/C1CC1)N(CC#Cc1ccccc1)Cc1ccccc1Br
z-score: 1.67

Look up z-score of O=C1OCCC=C[C@H]2OC34C=CCN(Cn5nnc6ccccc65)C(=O)[C@H]3N(CCCO)C(=O)[C@@H]4C12 (stereo partly drawn) and report it.
-0.614

Please list z-score recorded for the compound CN(C)C(=O)[C@@]1(Cc2ccccc2CN=[N+]=[N-])N=C(c2ccc(OCCCO)cc2)O[C@H]1c1ccccc1N=[N+]=[N-]
-0.699

Please give the documented z-score of CCOC(=O)C[C@H]1[C@H](OC(=O)c2ccc(-c3ccccc3)cc2)[C@@H](NC(=O)CC(C)C)c2cc(OCCCO)ccc2N1C(=O)c1ccc2ccccc2n1
1

Name the recorded z-score of the compound listed here: CC(=O)N1CC2(CC2)CC1c1ccccc1 (stereo not drawn)
-0.603

Determine its reported z-score: Cc1cc(C)c(C(O)C2C=CC3C(=O)N(c4ccccc4)C(=O)C3N2Nc2ccccc2F)c(C)c1 (stereo not drawn)
0.485

Please give measured z-score of the following entry: [N-]=[N+]=NCc1ccccc1[C@@H]1OC(c2ccc(OCCCO)cc2)=N[C@]1(CCS(=O)(=O)c1ccccc1)C(=O)O
-0.274

Please report z-score for the following compound: COC(=O)C/C=C/C[C@]1(O)C(=O)N(C)c2ccccc21
0.197

Dear colleague, please send me the reported z-score for CC(CO)N1C(=O)[C@@H]2[C@H]3C(=O)OCC=C[C@H]3OC23C=CCN(Cn2nnc4ccccc42)C(=O)[C@@H]13 (stereo partly drawn) when you can.
-0.628

Report z-score, nothing else, for this compound: O=C(O)[C@@H]1[C@@H]2C(=O)N(c3ccccc3)C(=O)[C@@H]2C[C@@H]1Sc1ccccc1
-0.303

Answer with reported z-score of CCOC(=O)C1=C[C@@H](C(C)C)N(S(=O)(=O)c2ccc(C)cc2)[C@H]1c1ccc(C(F)(F)F)cc1
-0.698

Report z-score for C=CCC(OC(C)=O)[C@@H]1[C@@H](N(Cc2cccc3ccccc23)C(=O)Cc2ccc(F)cc2)c2cc(OCCCO)ccc2N1C(=O)c1ccc2ccccc2c1 (stereo partly drawn)
0.921

Please look at this compound and report its z-score: O=C(C1N=C(c2ccc(OCCCO)cc2)N(c2ccccc2)O1)N1CCCCC1 (stereo not drawn)
0.377

Hello, please tell me recorded z-score for this one: C=CC[C@H](OC(=O)Nc1ccc(SC)cc1)c1ccc(O)c2ccccc12
-1.26

---

Catalogue of z-score values
biological target: NADPH oxidase 4 (Homo sapiens); assay: compounds shifting NOX4 Amplex Red fluorescence – cell-based, HEK293-NOX4, tetracycline-induced, NOX inhibitor project, primary screen (AID 1160); conditions: HEK293-NOX4, Amplex Red H2O2 fluorescence, 45 min; higher = more signal, called active from +8 up or from −8 down
The source made the active and inactive calls.

chemicalString: COC(=O)C(CC#Cc1ccc2c(c1)[C@]1(C(=O)N2)[C@H](c2ccc(O)cc2)N2[C@H](c3ccccc3)[C@H](c3ccccc3)OC(=O)[C@H]2[C@@H]1C(=O)NC[C@H](O)c1ccccc1)C(=O)OC
z-score: 0.318 (inactive)

// output z-score; input COc1ccccc1CN1C(=O)c2ccccc2[C@](Cc2ccccc2I)(C(=O)O)[C@@H]1c1ccc(CO)cc1 ; system NADPH oxidase 4 (Homo sapiens)
0.616 (inactive)

Jot down z-score (NADPH oxidase 4 (Homo sapiens)) of CC[C@@H]1O[Si](C(C)C)(C(C)C)c2c1cc(-c1cc(C)c(OC)c(C)c1)nc2-c1ccc(Oc2ccccc2)cc1 .
-0.672 (inactive)

src = PubChem BioAssay
